Exercise: for every item that follows, state its recorded GI50.
- Test system: HCT-15 colon
- experimentDescription: NCI tumour cell line growth inhibition, 48 h

[ask] Given the molecule COc1ccc(-c2nc(-c3nc4ccc(OC)cc4[nH]3)cc3c2[nH]c2ccccc23)cc1 , what is its reported GI50?
[reply] 2.88 µM

[ask] Given the molecule CCCN(CCC)c1ccc(/C=N/NC(=O)c2cccnc2)c(Cl)c1 , what is its reported GI50?
[reply] 7.87 µM

[ask] Given the molecule Nc1ccc(/C=N/Nc2ccnc3c(N)cccc23)c2cccnc12 , what is its reported GI50?
[reply] 1.34 µM

[ask] Given the molecule COc1cc(/C=C2\COc3ccc(O)c(O)c3C2=O)cc(OC)c1 , what is its reported GI50?
[reply] 0.483 µM

[ask] Given the molecule CCCCCCCC[N+](C)(CCCCCCCC)CCCCCCCC , what is its reported GI50?
[reply] 0.715 µM

[ask] Given the molecule Cc1ccc(C)c(-c2csc(Nc3ccc(C)c(C)c3)n2)c1 , what is its reported GI50?
[reply] 4.08 µM

[ask] Given the molecule COC1=CC(c2ccc[nH]2)=N/C1=C\c1[nH]c(C)c(C(=O)CCCCC(=O)Nc2ccccc2)c1C , what is its reported GI50?
[reply] 0.679 µM

[ask] Given the molecule COc1cc2nc(Nc3cccc(F)c3)nc(Nc3cc(C)[nH]n3)c2cc1OC , what is its reported GI50?
[reply] 1.22 µM

[ask] Given the molecule CCC(C)C(NC(=O)C1CCCN1C(=O)C(NC(=O)C(C)N)C(C)C)C(N)=O (configuration not stated) , what is its reported GI50?
[reply] > 100 µM

[ask] Given the molecule C[C@H]1[C@H](C)CC[C@]2(C(=O)O)CC[C@]3(C)C(=CC[C@@H]4[C@@]5(C)C/C(=C/c6ccco6)C(=O)C(C)(C)[C@@H]5CC[C@]43C)[C@H]12 , what is its reported GI50?
[reply] 2.95 µM

[ask] Given the molecule COC(=O)CCC/C=C\C[C@H]1C=CC(=O)/C1=C/C[C@@H](O)C/C=C\CC(F)(F)F , what is its reported GI50?
[reply] 1.07 µM

[ask] Given the molecule N.N.NCCCCN.O=C([O-])C1(C(=O)[O-])CCC1.O=C([O-])C1(C(=O)[O-])CCC1.[Pt+4].[Pt+4] , what is its reported GI50?
[reply] > 100 µM

[ask] Given the molecule COc1ccc(NC(=O)c2sc3nc(C)c(C(O)c4ccccc4)cc3c2N)cc1 (configuration not stated) , what is its reported GI50?
[reply] 1.44 µM

[ask] Given the molecule CCC(=C/[C@H](C)C/C=C/C(C)=C/[C@@H](C)C(=O)[C@@H](C)[C@H](O)[C@@H](C)CC)/C=C/[C@H]1OC(=O)C=C[C@H]1C , what is its reported GI50?
[reply] < 0.01 µM

[ask] Given the molecule COc1ccc(-c2ccc(C3CC(c4ccc(Cl)cc4)=NN3)o2)c([N+](=O)[O-])c1 (configuration not stated) , what is its reported GI50?
[reply] > 100 µM

[ask] Given the molecule COC(=O)C1=C(C(=O)OC)C23C=C(C)C1C2=C(C)C1(CC1)[C@@](C)(O)C3=O (some centres not stated) , what is its reported GI50?
[reply] 0.403 µM

[ask] Given the molecule COc1ccc2c(c1)CCC1C2CC[C@]2(C)/C(=N/OC(=O)Cc3ccccc3)CCC12 (some centres not stated) , what is its reported GI50?
[reply] 18 µM
